Overview of reported CL/F across a group of compounds:
assay: Clearance in Sprague-Dawley rat at 20 mg/kg, po by HPLC analysis; assay type: ADME, organism-based; details: in vivo
Could you give me the number in mL/min? Just the number is fine.

Some compounds with known CL/F results, for comparison:
CCN(CC)CCCNC(=O)c1ccc(C(CC)(CC)c2ccc(OCCC(O)(CC)CC)c(C)c2)n1CC :: 15.5
CCn1c(C(=O)NC(C)CO)ccc1C(CC)(CC)c1ccc(OCC(O)C(C)(C)C)c(C)c1 (stereo not drawn) :: 25

Now let's try a different one.
Measured CL/F, `CCn1c(C(=O)NCCCN2CCOCC2)ccc1C(CC)(CC)c1ccc(OCCC(O)(CC)CC)c(C)c1` : 21.8

----------
assay: MRT in Sprague-Dawley rat at 5 mg/kg, iv by HPLC analysis; assay type: ADME, organism-based; conditions: in vivo
Outcome measure: MRT (h)
Could you give me the number in h? Just the number is fine.

CCn1c(C(=O)NC(C)CO)ccc1C(CC)(CC)c1ccc(OCC(O)C(C)(C)C)c(C)c1 (stereo not drawn) :: 2.82
CCN(CC)CCCNC(=O)c1ccc(C(CC)(CC)c2ccc(OCCC(O)(CC)CC)c(C)c2)n1CC :: 3.85

Now let's try a different one.
Measured MRT, `CCn1c(C(=O)NCCCN2CCOCC2)ccc1C(CC)(CC)c1ccc(OCCC(O)(CC)CC)c(C)c1` : 7.55

----------
Overview of reported Activity across a group of compounds:
test system: MCF7; assay: Induction of apoptosis in human MCF7 cells assessed as necrotic cells at 1 uM after 24 hrs by Annexin V-FITC/propidium iodide-staining based flow cytometry (reference value: 0.031%); format: functional
Could you give me the number in %? Just the number is fine.

Some compounds with known Activity results, for comparison:
CCn1c(C(=O)NCCCN2CCOCC2)ccc1C(CC)(CC)c1ccc(OCCC(O)(CC)CC)c(C)c1 :: 0.2
Cc1cc(C2(c3ccc(OCC(=O)C(C)(C)C)c(C)c3)CCCCC2)ccc1OCC(=O)C(C)(C)C :: 0.33
C=C1/C(=C\C=C2/CCC[C@]3(C)[C@@H]([C@H](C)CCCC(C)(C)O)CC[C@@H]23)C[C@@H](O)C[C@@H]1O :: 0.15

Now let's try a different one.
Measured Activity, `CCN(CC)CCCNC(=O)c1ccc(C(CC)(CC)c2ccc(OCCC(O)(CC)CC)c(C)c2)n1CC` : 0.23

----------
Overview of reported MRT across a group of compounds:
experiment: MRT in Sprague-Dawley rat at 20 mg/kg, ip by HPLC analysis; assay type: ADME, organism-based; conditions: in vivo
The reply must contain the numeric value and, after it, the unit.

CCn1c(C(=O)NC(C)CO)ccc1C(CC)(CC)c1ccc(OCC(O)C(C)(C)C)c(C)c1 (stereo not drawn) :: 8.15 h
CCN(CC)CCCNC(=O)c1ccc(C(CC)(CC)c2ccc(OCCC(O)(CC)CC)c(C)c2)n1CC :: 9.3 h

Measured MRT, `CCn1c(C(=O)NCCCN2CCOCC2)ccc1C(CC)(CC)c1ccc(OCCC(O)(CC)CC)c(C)c1` : 17.6 h

----------
test: Drug uptake in human MCF7 cells at 1 uM after 10 mins by HPLC analysis; type: ADME, cell-based; conditions: mcf7, 10 min
Outcome measure: Drug uptake (%)
Could you give me the number in %? Just the number is fine.

CCn1c(C(=O)NCCCN2CCOCC2)ccc1C(CC)(CC)c1ccc(OCCC(O)(CC)CC)c(C)c1 :: 37.9

Now let's try a different one.
Measured Drug uptake, C=C1/C(=C\C=C2/CCC[C@]3(C)[C@@H]([C@H](C)CCCC(C)(C)O)CC[C@@H]23)C[C@@H](O)C[C@@H]1O [CALCITRIOL] : 6.5
